Listed next: entries and their corresponding Permeation.
experiment: Parallel artificial membrane permeability assay (PAMPA); details: pH 7.4
Where a name gives a salt, the structure may show the parent alone.

# annotated cases, reported Permeation shown
NC(=O)N1c2ccccc2C=Cc2ccccc21 [Carbamazepine, carbamazepine, reference compound]: 85 ± 21 10^-6 cm/s
CCCSc1ccc2nc(NC(=O)OC)[nH]c2c1 [Albendazole, albendazole, reference compound]: 286 ND 10^-6 cm/s
COc1cc(Nc2ccc3cc(S(=O)(=O)N4CCCCC4C)ccc3n2)cc(OC)c1OC (stereo not shown) [Compound 1]: 1057 ± 69 10^-6 cm/s
CC1CCCCN1S(=O)(=O)c1ccc2nc(Nc3ccc(C#N)cc3)ccc2c1 (stereo not shown) [Compound 12]: 570 ND 10^-6 cm/s
CNC(=C[N+](=O)[O-])NCCSCc1ccc(CN(C)C)o1 [Ranitidine HCl, ranitidine, reference compound]: 0 ± 0 10^-6 cm/s

Query: Permeation; subject: CC1CCCCN1S(=O)(=O)c1ccc2nc(Nc3cccc(C#N)c3)ccc2c1 (stereo not shown) [Compound 13]
582 ± 205 10^-6 cm/s

Sample CC1CCCCN1S(=O)(=O)c1ccc2nc(Nc3ccccc3)ccc2c1 (stereo not shown) [Compound 10] — what was its Permeation?
534 ± 25 10^-6 cm/s

====

biological target: PfHT (Plasmodium falciparum, UniProt Q7KWJ5); assay: Uptake of [3H] D-glucose by L. mexicana Δlmxgt1-3 null mutants expressing PfHT; assay type: cell-based; design: expressed in transfected cells; host or cells: Leishmania mexicana promastigotes, Δlmxgt1-3 hexose transporter null mutant
Sequence (Q7KWJ5 whole entry): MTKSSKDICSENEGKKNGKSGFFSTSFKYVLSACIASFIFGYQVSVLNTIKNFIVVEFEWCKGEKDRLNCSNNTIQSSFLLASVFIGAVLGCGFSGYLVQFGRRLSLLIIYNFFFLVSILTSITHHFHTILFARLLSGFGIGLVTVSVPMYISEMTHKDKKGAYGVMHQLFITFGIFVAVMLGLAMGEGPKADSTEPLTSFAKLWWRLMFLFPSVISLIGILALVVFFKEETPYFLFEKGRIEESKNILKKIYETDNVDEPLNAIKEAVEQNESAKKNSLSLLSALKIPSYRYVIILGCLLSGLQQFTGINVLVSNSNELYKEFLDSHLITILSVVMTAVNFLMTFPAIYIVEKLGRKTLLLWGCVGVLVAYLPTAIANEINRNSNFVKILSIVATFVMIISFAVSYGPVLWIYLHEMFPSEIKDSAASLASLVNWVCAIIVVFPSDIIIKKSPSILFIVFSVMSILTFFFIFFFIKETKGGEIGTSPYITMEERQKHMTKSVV
Item-by-item account of pIC50
The quantity pIC50 is defined as the negative base-10 logarithm of the molar concentration.

Solved cases (5 shown):
Cc1cccc(C(=O)Nc2cccc(-c3nc4ccccc4[nH]3)c2)c1: 4.89
COc1ccc(Nc2ccc3cc(S(=O)(=O)N4CCCCC4C)ccc3n2)cc1Cl (stereo not drawn): 6.03
CC(C)C(C(=O)n1ncc2c3c(N)nc(N)nc3ccc21)C(C)C: 5.96
Cc1ccc(C(=O)Nc2cccc(-c3nc4ccccc4[nH]3)c2)cc1: 4.64
COc1ccc(Nc2cc(C)nc(Nc3ccc(NC(C)=O)cc3)n2)cc1: 5.47

Under PfHT (Plasmodium falciparum, UniProt Q7KWJ5): pIC50 value of CCC(C)(CC)C(=O)n1ncc2c3c(N)nc(N)nc3ccc21 ?
5.52

For the record CCN1CCN(Cc2ccc(NC(=O)c3cc4ccc5cccnc5c4[nH]3)cc2)CC1 , what value of pIC50 is listed for PfHT (Plasmodium falciparum, UniProt Q7KWJ5)?
5.46

Item Cc1cc(=O)[nH]c(-n2nc(C)cc2NC(=O)C(c2ccccc2)c2ccccc2)n1 with PfHT (Plasmodium falciparum, UniProt Q7KWJ5) - pIC50?
4.92

What measured pIC50 is associated with COc1cc(Nc2ccc3cc(S(=O)(=O)N4CCCCC4C)ccc3n2)cc(OC)c1OC (stereo not drawn) on PfHT (Plasmodium falciparum, UniProt Q7KWJ5)?
7.41

Field: pIC50 (PfHT (Plasmodium falciparum, UniProt Q7KWJ5)). Entry: O=C(Nc1cccc(-c2nc3ccccc3[nH]2)c1)c1ccccc1
5.28

Give the reported pIC50 for CC(C)(C)C(=O)Nc1ccc(C(=O)Nc2ccc(-c3nc4ccccc4[nH]3)cc2)cc1 (system: PfHT (Plasmodium falciparum, UniProt Q7KWJ5)).
4.04

What pIC50 appears in the records for this compound with PfHT (Plasmodium falciparum, UniProt Q7KWJ5)? CCC(C)(C)C1CCc2[nH]c3ccccc3c(=O)c2C1 (stereo not drawn)
4.57

Report pIC50 for CC(C)(C)C(=O)Nc1ccc(C(=O)Nc2cccc(-c3nc4ccccc4[nH]3)c2)cc1 tested on PfHT (Plasmodium falciparum, UniProt Q7KWJ5).
5.57

So what pIC50 did COc1ccc(Nc2ccc3cc(S(=O)(=O)N4CCOCC4)ccc3n2)cc1OC get with PfHT (Plasmodium falciparum, UniProt Q7KWJ5)?
5.51

Requested read-out pIC50, target or system PfHT (Plasmodium falciparum, UniProt Q7KWJ5), entry CC1CCCCN1S(=O)(=O)c1ccc2nc(Nc3ccc(C#N)cc3)ccc2c1 (stereo not drawn)
5.57
